# maps each entry to its fraction unbound at 2.5 µM
assay: Fraction unbound in Wistar Han rat plasma at 2.5 uM by equilibrium dialysis; assay type: ADME, cell-free

GIVEN_SMILES: CCNC1=N[C@@H]2[C@@H](O)[C@H](O)[C@@H](C(F)F)O[C@@H]2S1
VALUE_PREFIX: =
fraction unbound at 2.5 µM: 0.97

GIVEN_SMILES: CNC1=N[C@@H]2[C@H](F)[C@H](O)[C@@H](CF)O[C@@H]2S1
VALUE_PREFIX: >
fraction unbound at 2.5 µM: 0.99

GIVEN_SMILES: CNC1=N[C@@H]2[C@@H](O)[C@H](O)[C@@H](CF)O[C@@H]2S1
VALUE_PREFIX: =
fraction unbound at 2.5 µM: 0.88

GIVEN_SMILES: CNC1=N[C@@H]2[C@H](F)[C@H](O)[C@@H](CO)O[C@@H]2S1
VALUE_PREFIX: =
fraction unbound at 2.5 µM: 0.96

GIVEN_SMILES: CNC1=N[C@@H]2[C@H](F)[C@H](O)[C@@H](C(F)F)O[C@@H]2S1
VALUE_PREFIX: =
fraction unbound at 2.5 µM: 0.93
